Every entry's value here was drawn from ChEMBL document CHEMBL5303573.

- protocolSummary: The drug is tested on Bifidobacterium breve strain: DSM20213 for biotransformation. The drug concentrations were measured before and after a 12-h incubation by liquid-chromatography-coupled mass spectrometry (LC–MS)
- experimentalSetup: 2 µM
assayMetric: Bacterial Biotransformation

Previously resolved entries follow.
Nc1nc2ccc(OC(F)(F)F)cc2s1 | Compound NOT metabolized
CC(=O)CCCCn1c(=O)c2c(ncn2C)n(C)c1=O | Compound NOT metabolized
O=C(O)CCC(=O)O.O=C(O[C@H]1CN2CCC1CC2)N1CCc2ccccc2[C@@H]1c1ccccc1 [SOLIFENACIN SUCCINATE] | Compound NOT metabolized
C#C[C@]1(OC(C)=O)CC[C@H]2[C@@H]3CCC4=C/C(=N/O)CC[C@@H]4[C@H]3CC[C@@]21CC [NORGESTIMATE] | Compound NOT metabolized
CC1Cc2ccccc2N1NC(=O)c1ccc(Cl)c(S(N)(=O)=O)c1 (centres undefined) [INDAPAMIDE] | Compound NOT metabolized
CC(C)NCC(O)COc1ccc(CCOCC2CC2)cc1 (centres undefined) | Compound NOT metabolized
NC12CC3CC(CC(C3)C1)C2 | Compound NOT metabolized
COc1ccccc1OCCNCC(O)COc1cccc2[nH]c3ccccc3c12 (centres undefined) | Compound NOT metabolized

Could you now look at the following compound, please?
Data request: Tell us which Bacterial Biotransformation value is on record for OCCOCCN1CCN(C2=Nc3ccccc3Sc3ccccc32)CC1
Data returned: Compound NOT metabolized

====

- experimentalSetup: victivallis vadensis, 12 h, 2 µM
- Description: The drug is tested on Victivallis vadensis strain: ATCC BAA-548 for biotransformation. The drug concentrations were measured before and after a 12-h incubation by liquid-chromatography-coupled mass spectrometry (LC–MS)
assayMetric: Bacterial Biotransformation

CN(C)C(=O)Oc1cc(OC(=O)N(C)C)cc(C(O)CNC(C)(C)C)c1 (stereo not drawn) | Compound NOT metabolized
CCN(CC)CC#CCOC(=O)C(O)(c1ccccc1)C1CCCCC1.Cl (stereo not drawn) [OXYBUTYNIN CHLORIDE] | Compound NOT metabolized
CS(=O)(=O)O.OC(CCN1CCCCC1)(c1ccccc1)c1ccccc1 [PRIDINOL METHANESULFONATE] | Compound NOT metabolized
CC(C)(Oc1ccc(CCNC(=O)c2ccc(Cl)cc2)cc1)C(=O)O [BEZAFIBRATE] | Compound NOT metabolized
CNC(=C[N+](=O)[O-])NCCSCc1ccc(CN(C)C)o1 | Compound NOT metabolized
COc1cc2nc(N3CCN(C(=O)C4COc5ccccc5O4)CC3)nc(N)c2cc1OC.CS(=O)(=O)O (stereo not drawn) [DOXAZOSIN MESYLATE] | Compound NOT metabolized
CC(C)C[C@H]1C(=O)N2CCC[C@H]2[C@]2(O)O[C@](NC(=O)[C@@H]3C=C4c5cccc6[nH]c(Br)c(c56)C[C@H]4N(C)C3)(C(C)C)C(=O)N12.CS(=O)(=O)O [BROMOCRIPTINE MESYLATE] | Compound metabolized

Data request: State its Bacterial Biotransformation for this compound: N[C@@H](Cc1ccc(N(CCCl)CCCl)cc1)C(=O)O
Data returned: Compound metabolized

====

- experimentalSetup: roseburia intestinalis, 12 h, 2 µM
- Description: The drug is tested on Roseburia intestinalis strain: L1-82 for biotransformation. The drug concentrations were measured before and after a 12-h incubation by liquid-chromatography-coupled mass spectrometry (LC–MS)
assayMetric: Bacterial Biotransformation

Take a look at these entries with their results.
CN(C)C(=O)Oc1cc(OC(=O)N(C)C)cc(C(O)CNC(C)(C)C)c1 (stereo not drawn) | Compound NOT metabolized
Nc1nnc(-c2cccc(Cl)c2Cl)c(N)n1 | Compound NOT metabolized
CCN(C)C(=O)Oc1cccc([C@H](C)N(C)C)c1.O=C(O)C(O)C(O)C(=O)O [RIVASTIGMINE TARTRATE] | Compound NOT metabolized
CS(=O)(=O)O.OC(CCN1CCCCC1)(c1ccccc1)c1ccccc1 [PRIDINOL METHANESULFONATE] | Compound NOT metabolized
CC1=C(CC(=O)O)c2cc(F)ccc2/C1=C\c1ccc([S+](C)[O-])cc1 (stereo not drawn) | Compound NOT metabolized
CNC(=C[N+](=O)[O-])NCCSCc1csc(CN(C)C)n1 | Compound NOT metabolized

Data request: Output Bacterial Biotransformation of CC(=O)Nc1ccc(OC(C)=O)cc1 [DIACETAMATE]
Data returned: Compound metabolized

Data request: Consider the compound CCC(COC(=O)c1cc(OC)c(OC)c(OC)c1)(c1ccccc1)N(C)C.O=C(O)/C=C\C(=O)O (stereo not drawn) and give its recorded Bacterial Biotransformation.
Data returned: Compound metabolized

Data request: Consider the compound Cc1cn([C@H]2C[C@H](N=[N+]=[N-])[C@@H](CO)O2)c(=O)[nH]c1=O and give its recorded Bacterial Biotransformation.
Data returned: Compound metabolized

Data request: Identify measured Bacterial Biotransformation corresponding to C=CCc1ccccc1OCC(O)CNC(C)C (stereo not drawn)
Data returned: Compound NOT metabolized

Data request: Given the compound COc1ccc(CN2CCNCC2)c(OC)c1OC.Cl.Cl [TRIMETAZIDINE DIHYDROCHLORIDE] , write its reported Bacterial Biotransformation.
Data returned: Compound NOT metabolized

Data request: Specify Bacterial Biotransformation for CCN(CC)C(=O)/C(C#N)=C/c1cc(O)c(O)c([N+](=O)[O-])c1 and stop.
Data returned: Compound metabolized

Data request: Provide only the value of recorded Bacterial Biotransformation for C[C@]12C=CC(=O)C=C1CC[C@@H]1[C@@H]2C(=O)C[C@@]2(C)[C@H]1CC[C@]2(O)C(=O)CO
Data returned: Compound NOT metabolized

Data request: Look up and state reported Bacterial Biotransformation for CC(Oc1c(Cl)cccc1Cl)C1=NCCN1 (stereo not drawn)
Data returned: Compound metabolized

====

- protocolSummary: The drug is tested on the gut metagenome community of MV12 with ENA study accession number: PRJEB31790 and ENA sample accession number: SAMEA5537493 for biotransformation. The drug concentrations were measured over 9 timepoints collected between 0 and 24 hours of incubation by liquid-chromatography-coupled mass spectrometry (LC–MS)
- Format: ADME
- Set-up: dose 2 uM, timepoint 0, 1, 2, 4, 6, 8, 12, 18, 24 hours
- experimentalSetup: 2 µM
assayMetric: Bacterial Biotransformation

C#C[C@]1(OC(C)=O)CC[C@H]2[C@@H]3CCC4=CC(=O)CC[C@@H]4[C@H]3CC[C@@]21C [NORETHINDRONE ACETATE] | Compound metabolized
C[C@@H]1C[C@H]2[C@@H]3CCC4=CC(=O)C=C[C@]4(C)[C@@]3(F)[C@@H](O)C[C@]2(C)[C@@]1(O)C(=O)CO [DEXAMETHASONE] | Compound NOT metabolized
COc1ccc([C@@H]2Sc3ccccc3N(CCN(C)C)C(=O)[C@@H]2OC(C)=O)cc1 [DILTIAZEM] | Compound NOT metabolized
CC(=O)OCC(CCn1cnc2cnc(N)nc21)COC(C)=O [FAMCICLOVIR] | Compound metabolized

====

- protocolSummary: The drug is tested on Bacteroides vulgatus strain: ATCC8482 for biotransformation. The drug concentrations were measured before and after a 12-h incubation by liquid-chromatography-coupled mass spectrometry (LC–MS)
- experimentalSetup: phocaeicola vulgatus, 2 µM
assayMetric: Bacterial Biotransformation

Below, each entry is followed by its recorded Bacterial Biotransformation result.
CC(C)c1c(CN(C)C(C)Cc2ccccc2)n(C)n(-c2ccccc2)c1=O (stereo unspecified) [FAMPROFAZONE] | Compound metabolized
Br.CN(C)CCCC1(c2ccc(F)cc2)OCc2cc(C#N)ccc21 (stereo unspecified) [CITALOPRAM HYDROBROMIDE] | Compound NOT metabolized
CN1[C@@H]2CC[C@H]1C[C@@H](OC(=O)c1c[nH]c3ccccc13)C2 [TROPISETRON] | Compound NOT metabolized
CN(CCOc1ccc(CC2SC(=O)NC2=O)cc1)c1ccccn1.O=C(O)/C=C\C(=O)O (stereo unspecified) [ROSIGLITAZONE MALEATE] | Compound NOT metabolized
COC1=CC(=O)C[C@@H](C)[C@]12Oc1c(Cl)c(OC)cc(OC)c1C2=O [GRISEOFULVIN] | Compound metabolized
CC(C)NCC(O)COc1ccc(CC(N)=O)cc1 (stereo unspecified) [ATENOLOL] | Compound NOT metabolized

Data request: Look up and report measured Bacterial Biotransformation for this entry: N=C(N)NC(=O)Cc1c(Cl)cccc1Cl [GUANFACINE]
Data returned: Compound NOT metabolized

Data request: Answer with reported Bacterial Biotransformation of O=c1[nH]c2ccccc2n1C1CCN(CCCC(c2ccc(F)cc2)c2ccc(F)cc2)CC1 [PIMOZIDE]
Data returned: Compound NOT metabolized

Data request: Return the recorded Bacterial Biotransformation value; entry: CN(C)C(=O)Oc1cc(OC(=O)N(C)C)cc(C(O)CNC(C)(C)C)c1 (stereo unspecified) [BAMBUTEROL]
Data returned: Compound NOT metabolized

Data request: Give me measured Bacterial Biotransformation, please, for this molecule: C[C@@H]1CC[C@H]2[C@@H](C)C(=O)O[C@@H]3O[C@@]4(C)CC[C@@H]1[C@]32OO4 [ARTEMISININ]
Data returned: Compound metabolized

Data request: Specify reported Bacterial Biotransformation for the molecule shown: COc1ccc(CCN(C)CCCC(C#N)(c2ccc(OC)c(OC)c2)C(C)C)cc1OC (stereo unspecified)
Data returned: Compound metabolized

Data request: For Br.COc1ccc2c(c1)[C@]13CCCC[C@@H]1[C@H](C2)N(C)CC3.O [DEXTROMETHORPHAN HYDROBROMIDE] , write its Bacterial Biotransformation.
Data returned: Compound NOT metabolized

Data request: Identify measured Bacterial Biotransformation corresponding to Fc1ccc([C@@H]2CCNC[C@H]2COc2ccc3c(c2)OCO3)cc1 [PAROXETINE]
Data returned: Compound NOT metabolized

Data request: Determine from records and report Bacterial Biotransformation for CC12CC3CC(C)(C1)CC(N)(C3)C2 [MEMANTINE]
Data returned: Compound NOT metabolized

Data request: Quickly give me recorded Bacterial Biotransformation for N#Cc1ccc2c(c1)N(CCCN1CCC(O)CC1)c1ccccc1S2 [PERICIAZINE]
Data returned: Compound metabolized

Data request: Answer with the recorded Bacterial Biotransformation for the molecule listed here: O=C(NCc1ccccc1)OCCO [BURAMATE]
Data returned: Compound NOT metabolized

Data request: Check the records and state Bacterial Biotransformation for CC(NC(C)(C)C)C(=O)c1cccc(Cl)c1 (stereo unspecified) [BUPROPION]
Data returned: Compound NOT metabolized

Data request: Give recorded Bacterial Biotransformation. CC(=O)OCC(=O)NCCCOc1cccc(CN2CCCCC2)c1 [ROXATIDINE ACETATE]
Data returned: Compound metabolized

Data request: Tell us which Bacterial Biotransformation value is on record for CN(C)CCOC(c1ccc(Cl)cc1)c1ccccn1.O=C(O)/C=C\C(=O)O (stereo unspecified) [CARBINOXAMINE MALEATE]
Data returned: Compound NOT metabolized
